B1: KCNAB2 (parent)
chain: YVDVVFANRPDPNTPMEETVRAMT

Variants of: B1
Assay: protein stability index of a GFP-peptide fusion (GPS, HEK-293T) (PSI 1-6); higher = more stable;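 also: lentivirally expressed fusions sorted by FACS into six bins by GFP to DsRed ratio, PSI derived from sequencing read proportions per bin multiplied by bin number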
Details: c terminus: a fixed tail appended
quantity.name: protein stability index
Give the figure only, with no unit attached.

{"mutation.label": "N13I", "experimental.value": 2.76}
{"mutation.label": "D11A", "experimental.value": 2.79}
{"mutation.label": "V2T", "experimental.value": 2.91}
{"mutation.label": "N8K", "experimental.value": 1.7}
{"mutation.label": "P10Y", "experimental.value": 1.69}
{"mutation.label": "P15A", "experimental.value": 2.34}
{"mutation.label": "E17W", "experimental.value": 3.15}
{"mutation.label": "T14K", "experimental.value": 2.2}
{"mutation.label": "V20H", "experimental.value": 1.81}

# input for lookup
Find the recorded protein stability index belonging to V2S and report it.
4.24

Reference source for all entries: the supplement of paper PMC10567573
